These entries and their values trace back to patent US5279956A.

Target: APC (Homo sapiens)
Construct: begins at amino acid residue position 158 and ends at 419; The light chain is 155 amino acid residues in length; tissue Factor IX concentrate from Immuno AG, Vienna; thrombin from Enzyme Research Laboratories
Sequence (P04070 212-461): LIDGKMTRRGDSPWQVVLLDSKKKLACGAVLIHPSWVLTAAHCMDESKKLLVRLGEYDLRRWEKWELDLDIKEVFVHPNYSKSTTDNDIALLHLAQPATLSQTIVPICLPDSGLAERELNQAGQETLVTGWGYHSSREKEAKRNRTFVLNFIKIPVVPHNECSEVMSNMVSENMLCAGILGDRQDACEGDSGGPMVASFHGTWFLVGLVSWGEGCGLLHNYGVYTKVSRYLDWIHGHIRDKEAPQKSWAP
Sequence (P04070 43-197): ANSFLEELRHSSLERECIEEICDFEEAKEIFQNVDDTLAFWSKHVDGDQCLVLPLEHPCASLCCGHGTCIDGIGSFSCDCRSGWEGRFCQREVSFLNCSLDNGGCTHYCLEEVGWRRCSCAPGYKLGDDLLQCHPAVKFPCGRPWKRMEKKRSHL
Experiment: APC anticoagulant activity, APTT and Xa-1-stage coagulation assays (mean or both)
Type: biochemical
Details: 500 μM peptide; mean of APTT and Xa-1-stage assays; 0 = no observable effect ± 10%
No end group written: not given here.
test readout: inhibition at 500 µM (%)
Numbers only here, please. The scale is %.

QUERY: Give inhibition at 500 µM only, for GEYDLRRWEKWELDL-NH2 [peptide-(224-238), GEYDLRRWEKWELDL] , using APC (Homo sapiens) data.
RESULT: 0

QUERY: Give inhibition at 500 µM only, for YGVYTKVSRYLDWIH-NH2 [peptide-(390-404), YGVYTKVSRYLDWIH] , using APC (Homo sapiens) data.
RESULT: 100

QUERY: Give inhibition at 500 µM only, for VLNFIKIPVVPHNEC-NH2 [peptide-(317-331), VLNFIKIPVVPHNEC] , using APC (Homo sapiens) data.
RESULT: 50

QUERY: Give inhibition at 500 µM only, for PATLSQTIVPISLPD-NH2 [peptide-(266-280) SEQ ID NO 7, PATLSQTIVPI -SLPD] , using APC (Homo sapiens) data.
RESULT: 0

QUERY: Give inhibition at 500 µM only, for TRRGDSPWQVVLLDS-NH2 [(176-190), TRRGDSPWQVVLLDS] , using APC (Homo sapiens) data.
RESULT: 25

QUERY: Give inhibition at 500 µM only, for HPSWVLTAAHSMDES-NH2 [peptide-(202-216), HPSWVLTAAH -SMDES] , using APC (Homo sapiens) data.
RESULT: 0

QUERY: Give inhibition at 500 µM only, for LIDGKMTRRGDSPWQ-NH2 [peptide-(170-184), LIDGKMTRRGDSPWQ] , using APC (Homo sapiens) data.
RESULT: 0

QUERY: Give inhibition at 500 µM only, for ELDLDIKEVFVHPNY-NH2 [peptide-(235-249), ELDLDIKEVFVHPNY] , using APC (Homo sapiens) data.
RESULT: 0

Continuing:
QUERY: Give inhibition at 500 µM only, for DIKEVFVHPNYSKST-NH2 [(239-253), DIKEVFVHPNYSKST] , using APC (Homo sapiens) data.
RESULT: 20
